# protocol: Dissociation kinetics of the Mn(II) complexes (acid catalyzed dissociation, metal or ligand exchange reactions)
# Format: physicochemical
# condition_description: I = 0.15 M NaCl, 25 °C
readout_name: k1 (proton-assisted dissociation) (M⁻¹ s⁻¹)
The response must be a number in M⁻¹ s⁻¹ with no trailing unit.

[[record]]
compound = "NC(=O)CN1CCNCCN(CC(N)=O)CCN(CC(N)=O)CC1.[Mn+2] [[Mn(DO3AM^H)]^2+]"
readout_name = "k1 (proton-assisted dissociation)"
recorded_value = 0.94

[[record]]
compound = "NC(=O)CN1CCN(CC(N)=O)Cc2cccc(n2)CN(CC(N)=O)CC1 [PC3AM^H]"
readout_name = "k1 (proton-assisted dissociation)"
recorded_value = 0.0107

[[record]]
compound = "O=C([O-])CN1CCNCCN(CC(=O)[O-])CCN(CC(=O)[O-])CC1.[Mn+2] [[Mn(DO3A)]^−]"
readout_name = "k1 (proton-assisted dissociation)"
recorded_value = 0.45


[in] For the compound O=C(O)CN1CCNCCN(CC(=O)O)CCN(CC(=O)O)CC1 [DO3A] , give its measured k1 (proton-assisted dissociation) value.
[out] 0.45

[in] For the compound O=C([O-])CN1CCOCCN(CC(=O)[O-])CCN(CC(=O)[O-])CC1.[Mn+2] [[Mn(ODO3A)]^−] , give its measured k1 (proton-assisted dissociation) value.
[out] 27
